Below, each of the compounds is paired with its reported inhibition of growth at 10 µM value.
System: HOP-92
protocol-summary: Cytotoxicity against human HOP92 cells assessed as growth inhibition at 10 uM after 48 hrs by SRB assay
Format: functional
test-conditions: HOP-92, 48 h, read-out: GI

Example cases with answers are listed next.
>>> value("Cc1nc(N)sc1C(=O)Nc1ccc(F)cc1")
"< 10%"
>>> value("Cc1nc(NC(=O)Nc2ccccc2)sc1C(=O)NN")
"< 10%"

Could you now look at the following compound, please?
Exercise: Given "CCOC(=O)c1sc(NS(=O)(=O)c2ccccc2)nc1C" , report its inhibition of growth at 10 µM on HOP-92.
Solution: < 10%

====

Consider the following molecules and their measured inhibition of growth at 10 µM readings.
Tested on: U-251
protocol-summary: Cytotoxicity against human U251 cells assessed as growth inhibition at 10 uM after 48 hrs by SRB assay
Format: functional
test-conditions: U-251, 48 h, read-out: GI

>>> value("CCOC(=O)c1sc(NC(=O)c2cc(OC)c(OC)c(OC)c2)nc1C")
"< 10%"
>>> value("Cc1nc(N)sc1C(=O)NCCO")
"< 10%"
>>> value("CCOC(=O)c1sc(NS(=O)(=O)c2ccccc2)nc1C")
"< 10%"
>>> value("CCOC(=O)c1sc(NC(=O)NC2CCCCC2)nc1C")
"< 10%"

// moving on: another record for inhibition of growth at 10 µM
Exercise: State, in one line, measured inhibition of growth at 10 µM of "Cc1nc(NC(=O)Nc2ccccc2)sc1C(=O)NN"
Solution: < 10%

====

Catalogue of MBC values
Test system: Escherichia coli
protocol-summary: Bactericidal activity against Escherichia coli ATCC 25922 after 18 hrs
Assay type: functional
test-conditions: ATCC 25922, 18 h
The response must be a number in µg/mL with no trailing unit.

>>> value("Cc1nc(N)sc1C(=O)Nc1ccc(F)cc1")
100

Exercise: Tell me its MBC given "CCOC(=O)c1sc(NC(=O)NC2CCCCC2)nc1C" as the entry.
Solution: 100

Exercise: Entry "CCOC(=O)c1sc(/N=C/c2ccco2)nc1C" needs its MBC filled in; supply it.
Solution: 50
